# assay name: in vivo
# Format: in vivo
# condition details: female, mouse, in vivo; mice ♀, pos
measurement type: MTD

compound="Oc1ccc(/C=C/c2cc(O)cc(O)c2)cc1 [Compound E]" assay_value="> 6100 mg/kg"
